Just for reference, ChEMBL document CHEMBL1134821 is where these values come from.

assay.procedure: Therapeutic index was determined
reported.conditions: read-out: TI
Each entry below carries its recorded selectivity ratio.
Just the number, please, no unit after it.

Example compounds with recorded selectivity ratio:
Which selectivity ratio is listed for CC(CC(=O)O)CC(=O)O[C@H]1CC[C@]2(C)[C@H]3CC[C@@H]4[C@@H]5CC(C)(C)CC[C@]5(C(=O)O)CC[C@@]4(C)[C@]3(C)CC[C@H]2C1(C)C (stereo partly specified) ?
123

Which selectivity ratio is listed for CC1(C)CC[C@]2(CNC(=O)CC3(CC(=O)O)CCCC3)CC[C@]3(C)C(=CC[C@@H]4[C@@]5(C)CC[C@H](OC(=O)CC6(CC(=O)O)CCCC6)C(C)(C)[C@@H]5CC[C@]43C)[C@@H]2C1 ?
195

Continuing:
Which selectivity ratio is listed for CC1(C)CC[C@]2(C(=O)O)CC[C@]3(C)[C@H](CC[C@@H]4[C@@]5(C)CC[C@H](OC(=O)CC6(CC(=O)O)CCCC6)C(C)(C)[C@@H]5CC[C@]43C)[C@@H]2C1 ?
101

Which selectivity ratio is listed for CC1(C)CC[C@]2(C(=O)O)CC[C@]3(C)[C@H](CC[C@@H]4[C@@]5(C)CC[C@H](O)C(C)(C)[C@@H]5CC[C@]43C)[C@@H]2C1 ?
34.8

Which selectivity ratio is listed for CC(C)(CC(=O)O)CC(=O)O[C@H]1CC[C@]2(C)[C@H]3CC[C@@H]4[C@@H]5CC(C)(C)CC[C@]5(C(=O)O)CC[C@@]4(C)[C@]3(C)CC[C@H]2C1(C)C ?
83

Which selectivity ratio is listed for CC1(C)CC[C@]2(C(=O)O)CC[C@]3(C)[C@H](CC[C@@H]4[C@@]5(C)CC[C@H](OC(=O)CC(C)(C)C(=O)O)C(C)(C)[C@@H]5CC[C@]43C)[C@@H]2C1 ?
3570
